Target: human cGAS (residues 161-522) (Homo sapiens, UniProt Q8N884)
Construct: Recombinantly expressed purified human cGAS (residues 161-522) was used at 25 nM; made in house
Sequence (Q8N884 161-522): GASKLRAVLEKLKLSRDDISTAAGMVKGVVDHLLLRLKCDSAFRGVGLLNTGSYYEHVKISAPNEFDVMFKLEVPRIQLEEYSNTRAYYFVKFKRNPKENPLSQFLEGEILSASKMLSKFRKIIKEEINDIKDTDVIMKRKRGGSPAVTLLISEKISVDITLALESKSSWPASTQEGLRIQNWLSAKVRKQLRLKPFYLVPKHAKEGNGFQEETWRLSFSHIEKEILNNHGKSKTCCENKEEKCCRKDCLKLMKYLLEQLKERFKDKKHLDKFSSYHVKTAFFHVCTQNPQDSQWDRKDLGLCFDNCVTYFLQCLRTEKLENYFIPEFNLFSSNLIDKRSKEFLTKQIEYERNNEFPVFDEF
Assay: cGAS Activity Assay - Malachite Green (coupled enzymatic assay, phosphate detection)
Assay type: biochemical
Conditions: recombinant human cGAS 25 nM, 80 μM ATP, 80 μM GTP, 100 nM ISD, 4 hour at RT
Experimental: cGAS Activity Assay—Malachite Green Compounds were tested for cGAS inhibition in a coupled enzymatic assay based on Phosphate detection by Malachite Green. […] Table 2 provides IC50 values (μM ) for cGAS inhibition obtained for particular examples of the present invention as measured by the above-described assay.
pIC50: −log10 of the molar value.
REPORTED PROPERTY: pIC50

Below: 8 compounds and their reported pIC50.
| SAMPLE SMILES | REPORTED PROPERTY | OBSERVED MEASUREMENT |
| --- | --- | --- |
| COC(=O)c1sccc1NC(=O)/C(C#N)=C(\O)c1cnoc1C | pIC50 | 5.90 |
| Cc1cccc(C)c1NC(=O)c1ccc(NC(=O)/C(C#N)=C(\O)c2cnoc2C)cn1 | pIC50 | 6.30 |
| Cc1oncc1/C(O)=C(\C#N)C(=O)Nc1cc[nH]c(=O)c1 | pIC50 | 6.74 |
| COc1cnc(NC(=O)/C(C#N)=C(\O)c2cnoc2C)cn1 | pIC50 | 6.08 |
| Cn1cncc1/C(O)=C(\C#N)C(=O)Nc1ccc(C(F)(F)F)cc1 | pIC50 | 5.73 |
| Cc1oncc1/C(O)=C(\C#N)C(=O)Nc1ccncc1 | pIC50 | 6.21 |
| N#C/C(C(=O)Nc1ccc(C(F)(F)F)cc1)=C(/O)c1cnco1 | pIC50 | 5.14 |
| CCOC(=O)c1c(C)csc1NC(=O)/C(C#N)=C(\O)c1cnoc1C | pIC50 | 6.09 |

(a) Cc1oncc1/C(O)=C(\C#N)C(=O)Nc1ccc2c(c1)CCC2=O
(b) COc1nc(NC(=O)/C(C#N)=C(\O)c2cnoc2C)nc2c1CCCC2
(c) Cc1oncc1/C(O)=C(\C#N)C(=O)Nc1cccnc1
Rank entries according to their pIC50, from the largest number down. Please, when replying, give the labels in the order that was requested. a, c, b

(1) Cn1nncc1/C(O)=C(\C#N)C(=O)Nc1ccc(C(F)(F)F)cc1
(2) COc1ccc(NC(=O)/C(C#N)=C(\O)c2cnoc2C)nn1
Input pair: 1 , 2 . Output: entry with lower pIC50. Indicate your choice by writing its label. 1
